study-system: 2-amino-4-hydroxy-6-hydroxymethyldihydropteridine pyrophosphokinase (Escherichia coli (strain K12))
Sequence (P26281 whole entry): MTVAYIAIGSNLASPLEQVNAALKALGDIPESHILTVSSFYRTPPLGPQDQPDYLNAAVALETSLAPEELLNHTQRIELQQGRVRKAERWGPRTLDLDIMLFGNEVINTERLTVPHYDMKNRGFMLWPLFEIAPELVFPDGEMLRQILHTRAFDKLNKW
method: Binding affinity to biotinylated Escherichia coli HPPK expressed in Escherichia coli BL21 (DE3) in presence of 1 mM ATP by SPR assay
recorded-metric: Kd

These solved cases illustrate the format of a correct answer.
Nc1nc2[nH]c(SCc3ccccc3Br)nc2c(=O)[nH]1	8.5 µM
CCN(CC)C(=O)CSc1nc2c(=O)[nH]c(N)nc2[nH]1	74.2 µM
Nc1nc2[nH]c(SCc3cccc(C(=O)O)c3)nc2c(=O)[nH]1	26 µM
Cc1cc(CSc2nc3c(=O)[nH]c(N)nc3[nH]2)ccc1F	10.1 µM
Nc1nc2[nH]c(SCCCO)nc2c(=O)[nH]1	68 µM

// below: Kd requested for another compound
Per the record, Cc1cc(F)ccc1CSc1nc2c(=O)[nH]c(N)nc2[nH]1 has Kd of 16.3 µM
